Measurement target: F508delCFTR (Homo sapiens, UniProt P13569, DEL508-508)
Construct: expressed in transfected cells; host or cells: CFBE41o- human lung-derived epithelial cell line, doxycycline-inducible expression
Sequence (P13569 with tags, fused parts or gaps DEL508-508): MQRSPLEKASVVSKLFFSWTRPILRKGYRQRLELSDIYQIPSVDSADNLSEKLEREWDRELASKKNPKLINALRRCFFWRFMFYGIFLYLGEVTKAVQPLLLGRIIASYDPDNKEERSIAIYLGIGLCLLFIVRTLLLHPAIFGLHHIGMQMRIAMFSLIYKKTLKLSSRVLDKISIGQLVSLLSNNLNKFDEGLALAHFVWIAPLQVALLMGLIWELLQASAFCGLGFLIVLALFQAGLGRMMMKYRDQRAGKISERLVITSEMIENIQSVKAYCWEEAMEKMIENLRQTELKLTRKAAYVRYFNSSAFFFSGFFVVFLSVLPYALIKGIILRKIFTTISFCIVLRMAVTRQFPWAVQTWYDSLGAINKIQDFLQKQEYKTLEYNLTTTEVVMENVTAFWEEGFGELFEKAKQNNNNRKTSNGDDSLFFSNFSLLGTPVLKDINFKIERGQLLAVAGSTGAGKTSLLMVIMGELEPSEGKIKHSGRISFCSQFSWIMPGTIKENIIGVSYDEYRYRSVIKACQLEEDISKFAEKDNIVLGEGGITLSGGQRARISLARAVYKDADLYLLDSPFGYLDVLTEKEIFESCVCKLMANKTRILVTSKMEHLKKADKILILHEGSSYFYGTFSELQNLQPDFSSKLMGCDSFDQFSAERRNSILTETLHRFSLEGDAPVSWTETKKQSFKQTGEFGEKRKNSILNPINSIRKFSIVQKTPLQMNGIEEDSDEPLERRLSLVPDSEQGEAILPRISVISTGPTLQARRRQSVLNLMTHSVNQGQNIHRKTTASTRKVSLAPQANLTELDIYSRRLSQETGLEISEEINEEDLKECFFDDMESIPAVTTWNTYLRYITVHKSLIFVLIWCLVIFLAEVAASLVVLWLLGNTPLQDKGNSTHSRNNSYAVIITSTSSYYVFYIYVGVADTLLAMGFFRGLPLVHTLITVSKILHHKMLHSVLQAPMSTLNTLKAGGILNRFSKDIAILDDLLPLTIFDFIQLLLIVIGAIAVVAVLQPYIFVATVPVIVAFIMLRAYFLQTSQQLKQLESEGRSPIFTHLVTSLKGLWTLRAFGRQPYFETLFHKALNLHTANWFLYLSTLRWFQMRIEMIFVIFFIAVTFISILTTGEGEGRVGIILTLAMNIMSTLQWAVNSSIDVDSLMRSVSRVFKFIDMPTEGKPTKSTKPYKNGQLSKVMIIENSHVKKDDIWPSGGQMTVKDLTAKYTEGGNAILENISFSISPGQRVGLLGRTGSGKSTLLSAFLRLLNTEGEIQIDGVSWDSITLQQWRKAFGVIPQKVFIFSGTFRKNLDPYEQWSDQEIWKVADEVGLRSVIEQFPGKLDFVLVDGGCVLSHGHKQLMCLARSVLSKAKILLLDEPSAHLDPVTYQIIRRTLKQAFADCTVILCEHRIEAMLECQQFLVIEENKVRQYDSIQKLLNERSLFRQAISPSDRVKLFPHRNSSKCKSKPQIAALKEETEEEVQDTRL
Assay protocol: Cell Surface Expression-Horse Radish Peroxidase (CSE-HRP) assay in CFBE41o-F508delCFTR-HRP cells
Format: cell-based
Measurement parameters: with co-corrector (2 μM); CFBE41o-F508delCFTR-HRP cells, 18-24 hours at 33° C., luminescence; read-out: EC50 (with co-corrector)
Description: A cellular assay for measuring the F508delCFTR cell surface expression after correction with test compounds either without or with a co-corrector (2 μM of 3-[(2R,4R)-4-({[1-(2,2-difluoro-1,3-benzodioxol-5-yl)cyclopropyl]carbonyl}amino)-7-methoxy-3,4-dihydro-2H-chromen-2-yl]benzoic acid), was developed in human lung derived epithelial cell line (CFBE4lo-) (Veit G et al, (2012) Mol Biol Cell. 23(21): 4188-4202). […] The raw counts from the experiment were analyzed using Accelrys® Assay Explorer v3.3. […]
Each item that follows carries a reported pEC50.
Recall that pEC50 is obtained by taking minus log10 of the concentration measured in molar.

A selection of reference data follows.
- Compound: "COc1ccc(C)cc1[C@@]1(C(=O)NS(=O)(=O)c2cccc3nc(C)ccc23)C[C@H]1c1cccnc1OC [Example 49]"
  pEC50: 5.93
- Compound: "COc1cncc([C@@H]2C[C@]2(C(=O)NS(=O)(=O)c2cccc3nc(C)ccc23)c2cc(C)ccc2OC)n1 (single isomer, unassigned)"
  pEC50: 6.13

Now, please, on to the next compound.
INPUT: Which measured pEC50 value corresponds to COc1cccc([C@H]2C[C@@]2(C(=O)NS(=O)(=O)c2cccc3nc(C)ccc23)c2cc(C)ccc2OC)n1 ?
OUTPUT: 6.09

###

Measurement target: F508delCFTR (Homo sapiens, UniProt P13569, DEL508-508)
Construct: expressed in transfected cells; host or cells: CFBE41o- human lung-derived epithelial cell line, doxycycline-inducible expression
Assay protocol: Cell Surface Expression-Horse Radish Peroxidase (CSE-HRP) assay in CFBE41o-F508delCFTR-HRP cells
Type: cell-based
Measurement parameters: without co-corrector; normalized to on-plate positive control corrector (2 μM)
Protocol: A cellular assay for measuring the F508delCFTR cell surface expression after correction with test compounds either without or with a co-corrector (2 μM of 3-[(2R,4R)-4-({[1-(2,2-difluoro-1,3-benzodioxol-5-yl)cyclopropyl]carbonyl}amino)-7-methoxy-3,4-dihydro-2H-chromen-2-yl]benzoic acid), was developed in human lung derived epithelial cell line (CFBE4lo-) (Veit G et al, (2012) Mol Biol Cell. 23(21): 4188-4202). […] The raw counts from the experiment were analyzed using Accelrys® Assay Explorer v3.3. […]
Each item that follows carries a reported Maximum % activity (without co-corrector).
Write the value in % as a bare number.

INPUT: Which measured Maximum % activity (without co-corrector) value corresponds to COc1ccc(C)cc1[C@@]1(C(=O)NS(=O)(=O)c2cccc3nc(C)ccc23)C[C@H]1c1cncc(F)c1 (racemic) [Example 42] ?
OUTPUT: 690

###

Each item that follows carries a reported Maximum % activity (without co-corrector).
Measurement target: F508delCFTR (Homo sapiens, UniProt P13569, DEL508-508)
Construct: expressed in transfected cells; host or cells: CFBE41o- human lung-derived epithelial cell line, doxycycline-inducible expression
Assay protocol: Cell Surface Expression-Horse Radish Peroxidase (CSE-HRP) assay in CFBE41o-F508delCFTR-HRP cells
Assay type: cell-based
Measurement parameters: without co-corrector; normalized to on-plate positive control corrector (2 μM)
Write the value in % as a bare number.

- Compound: "COc1ccc(C)cc1[C@@]1(C(=O)NS(=O)(=O)c2cccc3nc(C)ccc23)C[C@H]1c1ccc(C)cc1 (single isomer, unassigned) [Example 6]"
  Measurement: 982
- Compound: "COc1nccc([C@@H]2C[C@]2(C(=O)NS(=O)(=O)c2cccc3nc(C)ccc23)c2cc(C)ccc2OC)n1 (single isomer, unassigned) [Example 99]"
  Measurement: 180

Now, please, on to the next compound.
INPUT: Which measured Maximum % activity (without co-corrector) value corresponds to COc1ccc(C)cc1[C@]1(C(=O)NS(=O)(=O)c2cccc3nc(C)ccc23)C[C@@H]1c1cnc(C)cn1 (single isomer, unassigned) [Example 92] ?
OUTPUT: 653
